System: TIE1
condition_set: concentration: 1 μM, replicates: in singlicate; n = 1;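 further: KINOMEscan kinase panel screen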
Please provide measured %Inh for the entries that follow.
Numbers only, in %.

Cc1cccc(-c2nc(Nc3ccc4ncsc4c3)c3ccccc3n2)n1; 0

Hey, can you go through the list below and give me %Inh for every item?
1. NS(=O)(=O)c1cccc(-c2ccc3nccc(-c4cccc(S(N)(=O)=O)c4)c3c2)c1
2. Cc1ccc(NC(=O)c2ccnc(N3CCN(C)CC3)c2)cc1-c1ccc(C(=O)NCC2CC2)cc1
3. O=c1cc(N2CCOCC2)nc2n(Cc3cccc4ccccc34)ccn12

A)
1. 5
2. 2
3. 11

Field: %Inh. Fill in for each record below.
1. O=C(NCCNc1ccnc(Nc2ccc(F)cc2)n1)Nc1ccccc1F
2. c1ccc(-c2cc(-c3c[nH]nc3-c3ccccn3)ccn2)cc1
3. CC(=O)Nc1ccc(COc2ccc(Nc3ccnc4cc(-c5ccccn5)ccc34)cc2)cc1.Cl
4. Cc1nnc(-c2ccc3occ(-c4ccc(C(C)O)cc4)c3c2)o1 (stereo not drawn)
5. O=c1cc(N2CCOCC2)nc2n(Cc3cccc(F)c3)ccn12

A)
1: 0; 2: 0; 3: 26; 4: 18; 5: 7

###

Test system: PRKR
Construct: gene EIF2AK2
condition_set: concentration: 1 μM, replicates: in singlicate; n = 1
quantity_kind: %Inh (%)
Answers are plain numbers, in %.

Worked cases, %Inh given:
COc1cc2ncn(-c3cc(OCc4sccc4Cl)c(C(N)=O)s3)c2cc1OC; 0
O=c1cc(N2CCOCC2)nc2n(Cc3cccc4ccccc34)ccn12; 0
O=C(c1ccc(-c2cc(-c3c[nH]nc3-c3ccccn3)ccn2)cc1)N1CCOCC1; 20

As a next step, examine the compound that follows.
Q) # return recorded %Inh for input `[2H]C([2H])(c1cccc(C(F)(F)F)c1C)n1ccn2c(=O)nc(N3CCOCC3)cc12`
A) 0

###

Please go through the items and note down their %Inh.
Test system: ULK3
condition_set: concentration: 1 μM, replicates: in singlicate; n = 1
Give bare numbers, in %.

// solved cases for %Inh follow
N#Cc1ccc(-c2cc(-c3c[nH]nc3-c3ccccn3)ccn2)cc1; 6
O=C(c1ccc(-c2cc(-c3c[nH]nc3-c3ccccn3)ccn2)cc1)N1CCOCC1; 3
O=C(Nc1n[nH]c2cc(-c3cccc(F)c3)ccc12)C1CC1; 29
COc1ccc(CNC(=O)NC2CCN(c3ccnc(Nc4ccc(OC)cc4)n3)C2)cc1 (stereo not drawn); 9
CCCCCc1nc2c(N)ncnc2n1CCCCC; 11

Hi there! I need %Inh for each item below, if you can.
1. COc1cc2c(cc1OCCN1CCN(C)CC1)ncc1c3ccc(C#N)cc3[nH]c21
2. COc1ccc(Nc2nccc(N3CCC(NC(=O)Nc4cc(C)ccc4C)C3)n2)cc1 (stereo not drawn)
3. CSc1ccc(-c2cc3ncnc(SCC(=O)O)c3s2)cc1
4. O=C1NC(=O)C(N2CCc3ccccc32)=C1c1cccc(Cl)c1
5. Cl.Nc1ncnc2occ(-c3ccc(NC(=O)Nc4cc(C(F)(F)F)ccc4F)cc3)c12
6. Cc1ccc(C(=O)NCC(N)=O)cc1-n1c(C)cc(OCc2ccc(F)cc2F)c(Br)c1=O
7. CN(C1=C(c2ccccc2)C(=O)NC1=O)c1ccccc1

A)
66
12
0
14
19
2
6

###

Exercise: for every item that follows, state its recorded %Inh.
Tested on: CDK4-cyclinD3
condition_set: concentration: 1 μM, replicates: in singlicate; n = 1

The examples below pair each entry with its known result.
NS(=O)(=O)c1cccc(-c2ccc3ncc(N4CCOCC4)nc3c2)c1; 0%
Fc1ccc(-c2ncn(CCCN3CCOCC3)c2-c2cccnc2)cc1; 0%
Cc1cccc(-c2nc(-c3ccc(S(C)(=O)=O)cc3)sc2-c2ccncc2)c1; 19%
c1ccc(-c2cc(-c3c[nH]nc3-c3ccccn3)ccn2)cc1; 0%
O=C(NCCCN1CCOCC1)c1cccc(Nc2nccc(Nc3ccc(Oc4ccccc4)cc3)n2)c1; 0%

For every item below, please supply its %Inh.
1. CN1c2ccc(NCc3ccc(F)cc3)cc2-c2c(cnn2C)S1(=O)=O
2. N#Cc1c(N2CCOCC2)sc(-c2ccn[nH]2)c1-c1ccc(Cl)cc1
3. Cc1nnc(-c2ccc3ncc(-c4ccc(S(C)=O)cc4)n3c2)o1 (stereo not drawn)
4. O=C(Nc1cccc(-c2nn3ncccc3c2-c2ccnc(Nc3cccc(C(F)(F)F)c3)n2)c1)c1c(F)cccc1F

A)
1. 0%
2. 2%
3. 0%
4. 9%

###

System: ITK
condition_set: concentration: 1 μM, replicates: in singlicate; n = 1
Field: %Inh. Provide a value for each of the compounds that follow.

Reference set (10 entries):
Cc1nnc(-c2ccc(C)c(-c3ccc(C(=O)Nc4ccc(NS(C)(=O)=O)cc4)cc3)c2)o1 [GW702865]; 0%
CC(C)(C)n1cnc2c(N)ncnc21 [SKF-97359]; 4%
CCCCCc1nc2c(N)ncnc2n1CCCCC [SKF-97255]; 0%
Cc1ccc(NC(=O)c2ccnc(N3CCN(C)CC3)c2)cc1-c1ccc(C(=O)NCC2CC2)cc1 [GW775604]; 0%
Cl.Oc1cccc(Nc2ccnc3cc(-c4ccncc4)ccc23)c1 [GW494601]; 0%
CC(C)Oc1ccc2c(-c3ccnc(Nc4ccc(N5CCN(C)CC5)cc4)n3)cnn2n1 [GW696155]; 0%
O=C(NOCC1CC1)c1ccc(F)c(F)c1Nc1ccc(I)cc1Cl; 0%
c1ccc(-c2cc(-c3c[nH]nc3-c3ccccn3)ccn2)cc1 [GW576604]; 3%
COc1ccc(Nc2nccc(N3CCC(NC(=O)Nc4cccc(C(C)=O)c4)C3)n2)cc1 (stereo not drawn) [GSK1379731]; 14%
Fc1ccc(-c2ncn(CCCN3CCOCC3)c2-c2cccnc2)cc1 [SB-211743]; 0%

Please supply %Inh for each of the following items, keeping them in order.
1. CCc1nc(-c2cccc(C)c2)c(-c2ccnc(NCc3ccccc3)c2)s1
2. NCC(NC(=O)c1cc(-c2cn[nH]c2)c(-c2ccnc3[nH]ccc23)s1)c1ccccc1.O=C(O)C(F)(F)F.O=C(O)C(F)(F)F (stereo not drawn) [GSK1325775]
3. COc1cc(Nc2nccc(N3CCC(NC(=O)c4cccc(NC(C)=O)c4)C3)n2)cc(OC)c1OC (stereo not drawn) [GSK1379754]

A)
1: 13%; 2: 7%; 3: 6%

Answer for every listed entry: what is its %Inh? The entries follow.
1. O=C(NCCNc1ccnc(Nc2ccc(F)cc2)n1)c1cc2ccccc2s1 [GSK1379874]
2. O=C(Nc1n[nH]c2cc(-c3cccc(F)c3)ccc12)C1CC1 [SB-735464]
3. Cc1c2ccc(N(C)c3ccnc(Nc4cccc(S(N)(=O)=O)c4)n3)cc2nn1Cc1ccccc1.Cl.Cl [GW787226]
4. COc1cc2c(cc1OCCN1CCN(C)CC1)ncc1c3ccc(C#N)cc3[nH]c21
5. O=C1NC(=O)C(N2CCc3ccccc32)=C1c1cccc(Cl)c1 [SB-408010]

A)
["6%", "0%", "0%", "38%", "15%"]

###

For each record, write down the corresponding %Inh.
Test system: VPS34
Construct: gene PIK3C3
condition_set: concentration: 1 μM, replicates: in singlicate; n = 1
Answers are plain numbers, in %.

COc1cc2ncn(-c3cc(OCc4sccc4Cl)c(C(N)=O)s3)c2cc1OC; 60
O=C(c1ccc(-c2cc(-c3c[nH]nc3-c3ccccn3)ccn2)cc1)N1CCOCC1; 9
COc1ccc(COc2cc(-n3cnc4ccccc43)sc2C(N)=O)cc1; 40

Record %Inh per entry; entries follow.
1. CC(=O)Nc1ccc(COc2ccc(Nc3ccnc4cc(-c5ccccn5)ccc34)cc2)cc1.Cl
2. Cc1ccc(C(=O)NCC(N)=O)cc1-n1c(C)cc(OCc2ccc(F)cc2F)c(Br)c1=O
3. COc1cc2c(cc1OCCN1CCN(C)CC1)ncc1c3ccc(C#N)cc3[nH]c21
4. CN1c2ccc(NCc3ccc(F)cc3)cc2-c2c(cnn2C)S1(=O)=O
5. CCc1nc(-c2cccc(C)c2)c(-c2ccnc(NCc3ccccc3)c2)s1
6. CC(C)Oc1ccc2c(-c3ccnc(Nc4ccc(N5CCN(C)CC5)cc4)n3)cnn2n1

A)
1. 0
2. 0
3. 0
4. 0
5. 3
6. 96

###

Test system: ERBB2
condition_set: concentration: 1 μM, replicates: in singlicate; n = 1
Kindly supply the reported %Inh values for the records listed here.
One number for each entry, in %.

Study these solved cases before continuing.
Cc1cccc(Cn2ccn3c(=O)cc(N4CCOCC4)nc23)c1 [GSK2297542]; 1
Fc1ccc(-c2nn3c(OCC(F)(F)F)cccc3c2-c2ccncc2)cc1 [GW514784]; 59
NCC(NC(=O)c1cc(-c2cn[nH]c2)c(-c2ccnc3[nH]ccc23)s1)c1ccccc1.O=C(O)C(F)(F)F.O=C(O)C(F)(F)F (stereo not drawn) [GSK1325775]; 32
Cc1ccc(C(=O)NCC(N)=O)cc1-n1c(C)cc(OCc2ccc(F)cc2F)c(Br)c1=O; 36
CSc1ccc(-c2cc3ncnc(SCC(=O)O)c3s2)cc1; 22
O=C(NOCC1CC1)c1ccc(F)c(F)c1Nc1ccc(I)cc1Cl; 0

Items follow; give %Inh for each.
1. c1ccc(-c2n[nH]cc2-c2ccnc3ccccc23)nc1 [GW271431]
2. O=C(NCCCN1CCOCC1)c1cccc(Nc2nccc(Nc3ccc(Oc4ccccc4)cc3)n2)c1 [GW663929]
3. Cc1nnc(-c2ccc3ncc(-c4ccc(S(C)=O)cc4)n3c2)o1 (stereo not drawn)

A)
[9, 38, 65]
